# test-summary: endothelial E-selectin expression blockers – imaging, HUVEC, immunofluorescence, MLSMR starter and 10KST1 sets, primary screen (AID 487);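 note: 100% = median nuclei count of all wells on the same plate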
# settings: HUVEC TNFalpha-induced E-selectin immunofluorescence imaging, at 2 µM; measured here: cell number, toxicity
reported-endpoint: nuclei count (%)
Numbers only; they are read as %.

These recorded examples may help you get a feel for the data.
compound="O=C(COC(=O)Cc1cccc(C(F)(F)F)c1)NCC1CCCO1 (stereo unspecified)" reported_endpoint="nuclei count" measurement=134
compound=CN(C(=O)c1ccncc1)C1CC(C)(C)N(O)C(C)(C)C1 reported_endpoint="nuclei count" measurement=119
compound=C=CCSc1nnc(-c2ccccc2NC(C)=O)c(=O)[nH]1 reported_endpoint="nuclei count" measurement=107
compound=Nc1nnc(Cc2ccc(Cl)cc2)s1 reported_endpoint="nuclei count" measurement=115

In: Query: nuclei count; subject: Cc1cccc(C(=O)N2CCN(C(=O)c3cccc(C)c3)C(C)C2)c1 (stereo unspecified)
Out: 114

In: Query: nuclei count; subject: CCCc1cc(C(N)=O)c(NC(=O)c2ccco2)s1
Out: 111

In: Query: nuclei count; subject: O=C1CC(c2cccc(Cl)c2)CC(O)=C1C=NCCCO (stereo unspecified)
Out: 98.3

In: Query: nuclei count; subject: Cc1ccc2nsnc2c1S(=O)(=O)N1CCN(Cc2ccc3c(c2)OCO3)CC1
Out: 83.9

In: Query: nuclei count; subject: COCCN1C(=O)C(=O)/C(=C(/O)c2cccc(S(=O)(=O)N(C)C)c2)C12C(=O)N(C)c1ccccc12 (stereo unspecified)
Out: 107

In: Query: nuclei count; subject: COc1cccc(CC(NC(C)=O)C(=O)NC2CCN(c3c4c(nc5ncnn35)CCC4)CC2)c1 (stereo unspecified)
Out: 140

In: Query: nuclei count; subject: Cc1nc(-c2cnn(-c3ccccc3)c2)c2cc(C)oc2n1
Out: 159
